Values of pIC50 for Tyrosine-protein phosphatase non-receptor type 6 (Homo sapiens, UniProt P29350), collected from a number of published sources:
pIC50: −log10 of the molar value.
measurement_name: pIC50

Example cases with answers are listed next.
For the compound CC(C)CCC[C@](C)(O)c1ccc(C(=O)O)cc1O , give its measured pIC50 value.
5.08

Name the recorded pIC50 of the compound listed here: O=C(O)CCCCCNC(=O)c1ccc(C2Nc3cccc4cccc(c34)N2)nc1
5.57

Give pIC50 for the following compound: O=C(O)CNC(=O)c1ccc(C2Nc3cccc4cccc(c34)N2)nc1
5.22

I. Cc1c2oc3c(C)ccc(C(=O)O)c3nc-2c(C(=O)O)c(N)c1=O
II. COc1ccc2nc3cc(Cl)ccc3c(SC(CC(=O)O)C(=O)O)c2c1 (centres unmarked)
Decide: I or II , by lowest recorded pIC50. Could you answer with the label of the item you picked?
I
(I: 3.78, II: 4.07)
